The reader will find reported IC50 values listed item by item below.
# Tested on: HL-60
# test_description: Antiproliferative activity against human HL60 cells after 72 hrs by XTT assay
# Format: functional, cell-based
# details: HL-60, 72 h
readout: IC50

INSERT INTO assay_data (cpd_smiles, assayed_system, measurement) VALUES
  ('Nc1nc(N)c2c(-c3cc4ccccc4o3)cn([C@@H]3O[C@H](CO)[C@@H](O)[C@H]3O)c2n1', 'HL-60', '> 15 µM'),
  ('Nc1nc(N)c2c(-c3cccs3)cn([C@@H]3O[C@H](CO)[C@@H](O)[C@H]3O)c2n1', 'HL-60', '> 20 µM'),
  ('CN(C)c1ncnc2c1c(-c1ccccc1)cn2[C@@H]1O[C@H](CO)[C@@H](O)[C@H]1O', 'HL-60', '> 20 µM'),
  ('COc1ncnc2c1ccn2[C@@H]1O[C@H](CO)[C@@H](O)[C@H]1O', 'HL-60', '> 20 µM'),
  ('Nc1nc2c(c(-c3ccsc3)cn2[C@@H]2O[C@H](CO)[C@@H](O)[C@H]2O)c(=O)[nH]1', 'HL-60', '> 20 µM');
